Reference for the values: ChEMBL document CHEMBL1138090

- Species: Homo sapiens
- testSummary: Selectivity for TrkA over VEGFR2
quantity: Selectivity ratio

Check out these entries, answers already filled in.
{"columns": ["compound", "Selectivity ratio"],
 "data": [
  ["CNC(=O)Nc1snc(SC(c2ccc(Cl)cc2)C(C)C)c1C(N)=O (configuration not stated)", 188],
  ["CC[C@@H](Sc1nsc(NC(=O)NC)c1C(N)=O)c1ccc(Cl)cc1", 1300],
  ["CCC(Sc1nsc(NC(=O)NC)c1C(N)=O)c1ccc(Cl)cc1 (configuration not stated)", 111],
  ["CCCC(Sc1nsc(NC(=O)NC)c1C(N)=O)c1ccc(Cl)cc1 (configuration not stated)", 71],
  ["CNC(=O)Nc1snc(SC(C)c2ccc(Cl)cc2)c1C(N)=O (configuration not stated)", 57]
]}

(P) CNC(=O)Nc1snc(SCc2ccc(Cl)cc2)c1C(N)=O
(Q) CC[C@H](Sc1nsc(NC(=O)NC)c1C(N)=O)c1ccc(Cl)cc1
In: Between P and Q , which one shows the larger Selectivity ratio value? Mark your selection by writing its label.
Out: Q
